# test-conditions: in isopropanol, 326.15 K
observation-type: solubility (mole fraction)
Answers are plain numbers.

q: Suppose we examine the molecule Cc1nc(CCl)nc2ccccc12 ; what solubility (mole fraction) value has been reported?
a: 0.394

###

# test-conditions: in isopropanol, 321.15 K
observation-type: solubility (mole fraction)
Give bare numbers.

q: I am curious: what solubility (mole fraction) value has been reported for Cc1nc(CCl)nc2ccccc12 ?
a: 0.304

###

# test-conditions: in ethyl acetate, 321.15 K
observation-type: solubility (mole fraction)

q: Recorded solubility (mole fraction) of Cc1nc(CCl)nc2ccccc12 , please.
a: 0.503

###

# test-conditions: in THF, 321.15 K
observation-type: solubility (mole fraction)
Answers are plain numbers.

q: Field request: solubility (mole fraction) | item: Cc1nc(CCl)nc2ccccc12
a: 0.528

###

# test-conditions: in cyclohexane, 331.15 K
observation-type: solubility (mole fraction)
Give bare numbers.

q: Tell me the measured solubility (mole fraction) of Cc1nc(CCl)nc2ccccc12 , please.
a: 0.249

###

# test-conditions: in n-propanol, 331.15 K
observation-type: solubility (mole fraction)
One number for each entry.

q: What value of solubility (mole fraction) has been reported for the following compound? Cc1nc(CCl)nc2ccccc12
a: 0.294

###

# test-conditions: in ethanol, 291.15 K
observation-type: solubility (mole fraction)
Answers are plain numbers.

q: So what does the record say about solubility (mole fraction) for Cc1nc(CCl)nc2ccccc12 ?
a: 0.0969

###

# test-conditions: in cyclohexane, 321.15 K
observation-type: solubility (mole fraction)
Answers are plain numbers.

q: Would you mind telling me what solubility (mole fraction) value was observed for Cc1nc(CCl)nc2ccccc12 ?
a: 0.168

###

# test-conditions: in THF, 301.15 K
observation-type: solubility (mole fraction)
Answers are plain numbers.

q: Consider the compound Cc1nc(CCl)nc2ccccc12 and give its measured solubility (mole fraction).
a: 0.374

###

# test-conditions: in n-propanol, 281.15 K
observation-type: solubility (mole fraction)

q: Which solubility (mole fraction) is reported for this compound? Cc1nc(CCl)nc2ccccc12
a: 0.134

###

# test-conditions: in n-hexane, 316.15 K
observation-type: solubility (mole fraction)
Numbers only.

q: Look up solubility (mole fraction): Cc1nc(CCl)nc2ccccc12
a: 0.0476

###

# test-conditions: in n-hexane, 281.15 K
observation-type: solubility (mole fraction)
Give bare numbers.

q: Sample Cc1nc(CCl)nc2ccccc12 — what was its solubility (mole fraction)?
a: 0.00825

###

# test-conditions: in acetonitrile, 281.15 K
observation-type: solubility (mole fraction)
Answers are plain numbers.

q: // returns reported solubility (mole fraction) for input Cc1nc(CCl)nc2ccccc12
a: 0.0488

###

# test-conditions: in cyclohexane, 326.15 K
observation-type: solubility (mole fraction)
Numbers only.

q: Fill in: solubility (mole fraction) of Cc1nc(CCl)nc2ccccc12 is ___
a: 0.207

###

# test-conditions: in THF, 326.15 K
observation-type: solubility (mole fraction)
Give bare numbers.

q: Fill in: solubility (mole fraction) of Cc1nc(CCl)nc2ccccc12 is ___
a: 0.563

###

# test-conditions: in ethyl acetate, 316.15 K
observation-type: solubility (mole fraction)

q: // query solubility (mole fraction) value for entry Cc1nc(CCl)nc2ccccc12
a: 0.44

###

# test-conditions: in ethyl acetate, 281.15 K
observation-type: solubility (mole fraction)
Answers are plain numbers.

q: Fill blank: measured solubility (mole fraction) of the molecule Cc1nc(CCl)nc2ccccc12 is ____.
a: 0.105

###

# test-conditions: in ethanol, 301.15 K
observation-type: solubility (mole fraction)
Numbers only.

q: Give the measured solubility (mole fraction) of Cc1nc(CCl)nc2ccccc12 .
a: 0.152

###

# test-conditions: in n-butanol, 281.15 K
observation-type: solubility (mole fraction)
Give bare numbers.

q: Which solubility (mole fraction) is listed for Cc1nc(CCl)nc2ccccc12 ?
a: 0.05

###

# test-conditions: in n-butanol, 301.15 K
observation-type: solubility (mole fraction)
Give bare numbers.

q: Would you kindly share the measured solubility (mole fraction) for Cc1nc(CCl)nc2ccccc12 ?
a: 0.125

###

# test-conditions: in n-butanol, 316.15 K
observation-type: solubility (mole fraction)
Answers are plain numbers.

q: Would you kindly share the measured solubility (mole fraction) for Cc1nc(CCl)nc2ccccc12 ?
a: 0.225

###

# test-conditions: in n-propanol, 291.15 K
observation-type: solubility (mole fraction)
One number for each entry.

q: Quick one: solubility (mole fraction) of Cc1nc(CCl)nc2ccccc12 ?
a: 0.158

###

# test-conditions: in ethanol, 331.15 K
observation-type: solubility (mole fraction)
One number for each entry.

q: I'd like to know its solubility (mole fraction). The compound in question is Cc1nc(CCl)nc2ccccc12
a: 0.389

###

# test-conditions: in ethanol, 311.15 K
observation-type: solubility (mole fraction)
One number for each entry.

q: Return reported solubility (mole fraction); argument: Cc1nc(CCl)nc2ccccc12
a: 0.219

###

# test-conditions: in acetone, 316.15 K
observation-type: solubility (mole fraction)
Answers are plain numbers.

q: Bench note: what solubility (mole fraction) did Cc1nc(CCl)nc2ccccc12 show?
a: 0.531

###

# test-conditions: in isopropanol, 296.15 K
observation-type: solubility (mole fraction)
One number for each entry.

q: Would you mind telling me what solubility (mole fraction) value was observed for Cc1nc(CCl)nc2ccccc12 ?
a: 0.0964

###

# test-conditions: in acetone, 281.15 K
observation-type: solubility (mole fraction)
Give bare numbers.

q: So what does the record say about solubility (mole fraction) for Cc1nc(CCl)nc2ccccc12 ?
a: 0.107

###

# test-conditions: in n-hexane, 306.15 K
observation-type: solubility (mole fraction)
Numbers only.

q: Recorded solubility (mole fraction) of Cc1nc(CCl)nc2ccccc12 , please.
a: 0.0289

###

# test-conditions: in isopropanol, 301.15 K
observation-type: solubility (mole fraction)

q: Which solubility (mole fraction) reading was recorded for the compound Cc1nc(CCl)nc2ccccc12 ?
a: 0.123

###

# test-conditions: in ethanol, 296.15 K
observation-type: solubility (mole fraction)

q: Form field: reported solubility (mole fraction) of Cc1nc(CCl)nc2ccccc12
a: 0.123

###

# test-conditions: in n-hexane, 286.15 K
observation-type: solubility (mole fraction)
Answers are plain numbers.

q: What does the data say about its solubility (mole fraction)? Entry: Cc1nc(CCl)nc2ccccc12
a: 0.0115

###

# test-conditions: in acetone, 301.15 K
observation-type: solubility (mole fraction)
One number for each entry.

q: Using the record for Cc1nc(CCl)nc2ccccc12 , report its solubility (mole fraction).
a: 0.297

###

# test-conditions: in n-propanol, 301.15 K
observation-type: solubility (mole fraction)

q: Entry Cc1nc(CCl)nc2ccccc12 : reported solubility (mole fraction) = ?
a: 0.186

###

# test-conditions: in ethyl acetate, 291.15 K
observation-type: solubility (mole fraction)

q: Item Cc1nc(CCl)nc2ccccc12 has what recorded solubility (mole fraction)?
a: 0.173

###

# test-conditions: in n-butanol, 331.15 K
observation-type: solubility (mole fraction)
Answers are plain numbers.

q: State the recorded solubility (mole fraction) for this entry: Cc1nc(CCl)nc2ccccc12
a: 0.361

###

# test-conditions: in n-propanol, 326.15 K
observation-type: solubility (mole fraction)
Give bare numbers.

q: Data request, read-out solubility (mole fraction), for Cc1nc(CCl)nc2ccccc12
a: 0.273

###

# test-conditions: in acetonitrile, 291.15 K
observation-type: solubility (mole fraction)

q: // returns reported solubility (mole fraction) for input Cc1nc(CCl)nc2ccccc12
a: 0.096

###

# test-conditions: in isopropanol, 286.15 K
observation-type: solubility (mole fraction)
Numbers only.

q: Recorded solubility (mole fraction) of Cc1nc(CCl)nc2ccccc12 , please.
a: 0.0569

###

# test-conditions: in acetone, 286.15 K
observation-type: solubility (mole fraction)
Answers are plain numbers.

q: Value lookup for solubility (mole fraction); key = Cc1nc(CCl)nc2ccccc12
a: 0.142

###

# test-conditions: in n-butanol, 311.15 K
observation-type: solubility (mole fraction)
Give bare numbers.

q: What measured solubility (mole fraction) goes with Cc1nc(CCl)nc2ccccc12 ?
a: 0.186

###

# test-conditions: in ethyl acetate, 301.15 K
observation-type: solubility (mole fraction)
Give bare numbers.

q: // returns reported solubility (mole fraction) for input Cc1nc(CCl)nc2ccccc12
a: 0.266

###

# test-conditions: in ethyl acetate, 286.15 K
observation-type: solubility (mole fraction)
Numbers only.

q: I'd like to know its solubility (mole fraction). The compound in question is Cc1nc(CCl)nc2ccccc12
a: 0.136

###

# test-conditions: in acetonitrile, 296.15 K
observation-type: solubility (mole fraction)

q: Bench note: what solubility (mole fraction) did Cc1nc(CCl)nc2ccccc12 show?
a: 0.13

###

# test-conditions: in THF, 306.15 K
observation-type: solubility (mole fraction)
One number for each entry.

q: Tell me the measured solubility (mole fraction) of Cc1nc(CCl)nc2ccccc12 , please.
a: 0.411
